SYSTEM: T1, human LAG-3 on cells (HEK293-hLAG-3 stable cell line) (human, UniProt P18627 23-525)
T1 sequence: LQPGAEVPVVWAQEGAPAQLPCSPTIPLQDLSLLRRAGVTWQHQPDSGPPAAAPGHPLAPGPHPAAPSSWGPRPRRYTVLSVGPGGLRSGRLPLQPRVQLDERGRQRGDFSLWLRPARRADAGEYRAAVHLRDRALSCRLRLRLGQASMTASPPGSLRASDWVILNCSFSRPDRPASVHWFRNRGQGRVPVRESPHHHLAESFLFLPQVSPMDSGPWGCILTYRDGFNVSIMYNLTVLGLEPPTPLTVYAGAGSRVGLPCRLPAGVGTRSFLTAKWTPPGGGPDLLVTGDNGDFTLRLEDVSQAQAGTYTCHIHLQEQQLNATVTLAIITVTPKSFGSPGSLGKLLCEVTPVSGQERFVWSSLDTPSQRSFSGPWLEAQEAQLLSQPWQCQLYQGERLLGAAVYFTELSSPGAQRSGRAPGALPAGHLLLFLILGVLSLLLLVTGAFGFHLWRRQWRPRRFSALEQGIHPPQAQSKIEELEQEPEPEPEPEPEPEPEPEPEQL
TEST_SUMMARY: cell-based or functional assay
Quick reference for IL-2 production, SEB-dependent PBMC stimulation test, 0.08 ug/ml, N = 1 among some binders
# value in pg/mL; strip the unit string

>  <BINDER>
405B8H3 mouse-human chimeric antibody (antibody, V domains shown, also called mAb103-405B8H3) VH: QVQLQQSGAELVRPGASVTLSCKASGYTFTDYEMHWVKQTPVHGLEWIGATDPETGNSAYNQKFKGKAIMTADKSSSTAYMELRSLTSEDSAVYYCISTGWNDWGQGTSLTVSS VL: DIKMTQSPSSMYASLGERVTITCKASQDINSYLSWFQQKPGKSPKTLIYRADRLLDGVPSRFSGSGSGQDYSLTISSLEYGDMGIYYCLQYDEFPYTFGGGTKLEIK

>  <ASSAY_VALUE>
1800

$$$$

**Query** Return reported IL-2 production, SEB-dependent PBMC stimulation test, 0.08 ug/ml, N = 1; argument: 105F1E10 mouse-human chimeric antibody (antibody, V domains shown, also called mAb009-105F1E10) VH: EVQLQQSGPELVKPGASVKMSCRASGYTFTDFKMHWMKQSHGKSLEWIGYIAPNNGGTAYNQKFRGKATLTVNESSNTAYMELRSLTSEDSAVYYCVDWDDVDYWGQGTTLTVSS VL: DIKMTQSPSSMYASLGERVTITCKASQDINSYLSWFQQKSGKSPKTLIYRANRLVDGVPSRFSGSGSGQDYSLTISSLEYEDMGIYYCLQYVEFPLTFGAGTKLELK
**Result** 2130

**Query** Request: 409B11E12 mouse-human chimeric antibody (antibody, V domains shown, also called mAb104-409B11E12) VH: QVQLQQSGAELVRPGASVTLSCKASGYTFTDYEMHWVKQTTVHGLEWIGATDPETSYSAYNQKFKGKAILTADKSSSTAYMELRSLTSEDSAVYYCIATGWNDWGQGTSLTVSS VL: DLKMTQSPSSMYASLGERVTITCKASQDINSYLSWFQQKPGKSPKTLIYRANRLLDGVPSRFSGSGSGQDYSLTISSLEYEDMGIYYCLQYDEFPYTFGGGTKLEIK
**Result** 1550

**Query** Request: 556F6B8 mouse-human chimeric antibody (antibody, V domains shown, also called mAb123-556F6B8; 556F8B8) VH: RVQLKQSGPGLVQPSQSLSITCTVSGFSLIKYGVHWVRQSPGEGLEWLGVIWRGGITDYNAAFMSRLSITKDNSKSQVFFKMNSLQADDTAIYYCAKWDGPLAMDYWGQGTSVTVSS VL: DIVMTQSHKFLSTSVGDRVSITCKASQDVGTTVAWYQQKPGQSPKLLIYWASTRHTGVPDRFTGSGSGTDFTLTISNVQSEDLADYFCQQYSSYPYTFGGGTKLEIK
**Result** 1780

**Query** Request: 409D4E10 mouse-human chimeric antibody (antibody, V domains shown, also called mAb112-409D4E10) VH: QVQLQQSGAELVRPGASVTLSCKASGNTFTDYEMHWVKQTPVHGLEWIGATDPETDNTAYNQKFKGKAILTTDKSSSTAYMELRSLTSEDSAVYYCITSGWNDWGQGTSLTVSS VL: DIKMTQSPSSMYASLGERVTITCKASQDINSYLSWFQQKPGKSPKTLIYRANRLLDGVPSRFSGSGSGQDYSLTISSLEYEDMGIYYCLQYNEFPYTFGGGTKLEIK
**Result** 1630
